# System: peripheral blood mononuclear cells (PBMC)
# test.details: Anti-proliferative or immunosuppressive activity, BrdU incorporation in PHA-stimulated PBMC
# Assay type: cell-based
# run.parameters: PHA 3 μg/ml, 60 hour compound treatment; read-out: EMV PBMC IC50
Starred links: 1 amine or outer side, 2 acyl side, 3 side chain; linkers in the order of their positions; H or OH if unused. Non-standard residues stand in square brackets, D forms with d. Residues, ends and D or L forms follow the SMILES beside them. X76 = CO[C@H](CN1CCOCC1)[C@@H](C(=O)[*:2])N(C)[*:1]; MeBmt = C/C=C/C[C@@H](C)[C@@H](O)[C@H](NC)C(=O)O; NMeL = CN[C@@H](CC(C)C)C(=O)O; NMeV = CN[C@H](C(=O)O)C(C)C; dNMeA = CN[C@H](C)C(=O)O; Abu = CC[C@H](N)C(=O)O
measurement.type: IC50 (µM)
Note: unit µM is implicit; provide only the numeric part.

Reported IC50 of C/C=C/C[C@@H](C)[C@@H](O)[C@H]1C(=O)N[C@@H](CC)C(=O)N(C)[C@H](C)C(=O)N(C)[C@@H]([C@@H](CN2CCOCC2)OC)C(=O)N[C@@H](C(C)C)C(=O)N(C)[C@@H](CC(C)C)C(=O)N[C@@H](C)C(=O)N[C@H](C)C(=O)N(C)[C@@H](CC(C)C)C(=O)N(C)[C@@H](CC(C)C)C(=O)N(C)[C@@H](C(C)C)C(=O)N1C [Compound 2.21.1] (cyclo(A[dA][NMeL][NMeL][NMeV][MeBmt][Abu][dNMeA][X76]V[NMeL])) : 15.7

compound `C/C=C/C[C@@H](C)[C@@H](O)[C@H]1C(=O)N[C@@H](CC)C(=O)N(C)[C@H](C)C(=O)N(C)[C@@H]([C@H](C)COCCN2CCN3C(=O)OC[C@@H]3C2)C(=O)N[C@@H](C(C)C)C(=O)N(C)[C@@H](CC(C)C)C(=O)N[C@@H](C)C(=O)N[C@H](C)C(=O)N(C)[C@@H](CC(C)C)C(=O)N(C)[C@@H](CC(C)C)C(=O)N(C)[C@@H](C(C)C)C(=O)N1C` , IC50 observed: 12.4

---

# system.under.test: CypF (Homo sapiens (Human), UniProt P30405)
# Sequence (P30405 30-207): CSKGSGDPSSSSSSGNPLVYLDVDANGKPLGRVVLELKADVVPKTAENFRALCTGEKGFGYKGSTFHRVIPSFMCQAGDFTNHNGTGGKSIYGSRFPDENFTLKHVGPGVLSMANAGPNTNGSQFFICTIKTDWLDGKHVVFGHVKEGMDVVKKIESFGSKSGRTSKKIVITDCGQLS
# test.details: Inhibitor binding to cyclophilin proteins by SPR, CypF
# run.parameters: 1:1 binding model
Starred links: 1 amine or outer side, 2 acyl side, 3 side chain; linkers in the order of their positions; H or OH if unused. Non-standard residues stand in square brackets, D forms with d. Residues, ends and D or L forms follow the SMILES beside them. X78 = CC(C)N1CCN(CCOC[C@@H](C)[C@@H](C(=O)[*:2])N(C)[*:1])CC1; X39 = C[C@H](CN1CCC(C#N)CC1)[C@@H](C(=O)[*:2])N(C)[*:1]; MeBmt = C/C=C/C[C@@H](C)[C@@H](O)[C@H](NC)C(=O)O; NMeL = CN[C@@H](CC(C)C)C(=O)O; NMeV = CN[C@H](C(=O)O)C(C)C; dNMeA = CN[C@H](C)C(=O)O; Abu = CC[C@H](N)C(=O)O
Could you please report measured CypF Kd for the items listed next?
Response body: numeric value in nM, unit text excluded.

response.value for C/C=C/C[C@@H](C)[C@@H](O)[C@H]1C(=O)N[C@@H](CC)C(=O)N(C)[C@H](C)C(=O)N(C)[C@@H]([C@H](C)CN2CCC(C#N)CC2)C(=O)N[C@@H](C(C)C)C(=O)N(C)[C@@H](CC(C)C)C(=O)N[C@@H](C)C(=O)N[C@H](C)C(=O)N(C)[C@@H](CC(C)C)C(=O)N(C)[C@@H](CC(C)C)C(=O)N(C)[C@@H](C(C)C)C(=O)N1C [Compound 2.5.26] (cyclo(A[dA][NMeL][NMeL][NMeV][MeBmt][Abu][dNMeA][X39]V[NMeL])) (field: CypF Kd) = 0.8

// recorded CypF Kd for C/C=C/C[C@@H](C)[C@@H](O)[C@H]1C(=O)N[C@@H](CC)C(=O)N(C)[C@H](C)C(=O)N(C)[C@@H]([C@H](C)COCCN2CCN(C(C)C)CC2)C(=O)N[C@@H](C(C)C)C(=O)N(C)[C@@H](CC(C)C)C(=O)N[C@@H](C)C(=O)N[C@H](C)C(=O)N(C)[C@@H](CC(C)C)C(=O)N(C)[C@@H](CC(C)C)C(=O)N(C)[C@@H](C(C)C)C(=O)N1C [Compound 2.8.5] (cyclo(A[dA][NMeL][NMeL][NMeV][MeBmt][Abu][dNMeA][X78]V[NMeL])) : 0.4
